Task for the reader: assign each of the following sequences its reported PBM E-score.
Target: Stb5 (UniProt P38699)
Sequence: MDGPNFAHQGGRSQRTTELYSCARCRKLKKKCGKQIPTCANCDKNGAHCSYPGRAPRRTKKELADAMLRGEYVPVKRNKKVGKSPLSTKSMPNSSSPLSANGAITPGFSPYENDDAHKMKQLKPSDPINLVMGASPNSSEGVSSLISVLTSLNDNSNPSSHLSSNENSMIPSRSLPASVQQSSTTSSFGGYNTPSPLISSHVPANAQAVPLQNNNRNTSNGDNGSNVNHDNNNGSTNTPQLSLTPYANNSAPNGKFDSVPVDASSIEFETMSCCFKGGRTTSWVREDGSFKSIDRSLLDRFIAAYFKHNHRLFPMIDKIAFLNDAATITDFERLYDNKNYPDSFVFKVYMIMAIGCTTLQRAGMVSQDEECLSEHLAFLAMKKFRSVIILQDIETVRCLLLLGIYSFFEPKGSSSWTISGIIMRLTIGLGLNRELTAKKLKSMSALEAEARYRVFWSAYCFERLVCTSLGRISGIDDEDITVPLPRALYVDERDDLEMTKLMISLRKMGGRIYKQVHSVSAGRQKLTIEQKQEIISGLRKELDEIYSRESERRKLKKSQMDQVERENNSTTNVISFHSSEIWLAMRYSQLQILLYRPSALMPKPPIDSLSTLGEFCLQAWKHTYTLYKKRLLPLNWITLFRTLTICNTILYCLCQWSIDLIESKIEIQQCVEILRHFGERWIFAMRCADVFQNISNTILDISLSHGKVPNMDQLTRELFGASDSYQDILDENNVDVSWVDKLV
Experiment: PBM E-score (8-mer binding enrichment) (E-score (-0.5 to 0.5)); higher = stronger / more preferred TF binding
Conditions: protein concentration: 200 nM; construct: GST-full length
In all, about 33,000 sequences were measured (“E-score (-0.5 to 0.5)”: median about -0.054, highest 2% from about 0.35 on). Only a selection was taken, and the highest values are over-represented in it overall.
Enter the number alone.

Could you tell me which PBM E-score is on file for CGGATTAA ?
0.231

Could you tell me which PBM E-score is on file for CGCCTTAA ?
0.0389

Could you tell me which PBM E-score is on file for GGGTAATA ?
0.143

Could you tell me which PBM E-score is on file for ATGCGTTG ?
-0.0346

Could you tell me which PBM E-score is on file for CGCAAAGA ?
0.016

Could you tell me which PBM E-score is on file for GATGCCGA ?
0.332

Could you tell me which PBM E-score is on file for CGGTAATA ?
0.457

Could you tell me which PBM E-score is on file for AATACTGC ?
-0.0596

Could you tell me which PBM E-score is on file for AGTCGTAC ?
-0.189

Could you tell me which PBM E-score is on file for AGATCAAG ?
-0.211

Could you tell me which PBM E-score is on file for CCGTGAGC ?
0.196

Could you tell me which PBM E-score is on file for CGGATCCG ?
0.124

Could you tell me which PBM E-score is on file for ACCAGCCC ?
0.211

Could you tell me which PBM E-score is on file for CGGTAACA ?
0.36

Could you tell me which PBM E-score is on file for ACCTGGAG ?
-0.133

Could you tell me which PBM E-score is on file for ACTGAAGG ?
-0.139

Could you tell me which PBM E-score is on file for CACTGCCC ?
-0.0546

Could you tell me which PBM E-score is on file for CGCAGAGC ?
-0.0211

Could you tell me which PBM E-score is on file for CCTGTGAC ?
-0.0962

Could you tell me which PBM E-score is on file for CCTGATCA ?
-0.0914

Could you tell me which PBM E-score is on file for CATGCCCG ?
0.122

Could you tell me which PBM E-score is on file for CACAATGA ?
-0.244

Could you tell me which PBM E-score is on file for ACTTGCAA ?
-0.00221

Could you tell me which PBM E-score is on file for AGTCTGGG ?
-0.291

Could you tell me which PBM E-score is on file for TCAGCTAA ?
-0.245

Could you tell me which PBM E-score is on file for GACCATCA ?
0.0409

Could you tell me which PBM E-score is on file for CATGCCGG ?
0.344

Could you tell me which PBM E-score is on file for CGGTAACC ?
0.165

Could you tell me which PBM E-score is on file for CGGTAATC ?
0.25

Could you tell me which PBM E-score is on file for GCATGAGC ?
-0.0601

Could you tell me which PBM E-score is on file for CATTTCTA ?
0.0892

Could you tell me which PBM E-score is on file for CTTCACAC ?
-0.0447

###

Target: Stb5 (UniProt P38699)
Sequence: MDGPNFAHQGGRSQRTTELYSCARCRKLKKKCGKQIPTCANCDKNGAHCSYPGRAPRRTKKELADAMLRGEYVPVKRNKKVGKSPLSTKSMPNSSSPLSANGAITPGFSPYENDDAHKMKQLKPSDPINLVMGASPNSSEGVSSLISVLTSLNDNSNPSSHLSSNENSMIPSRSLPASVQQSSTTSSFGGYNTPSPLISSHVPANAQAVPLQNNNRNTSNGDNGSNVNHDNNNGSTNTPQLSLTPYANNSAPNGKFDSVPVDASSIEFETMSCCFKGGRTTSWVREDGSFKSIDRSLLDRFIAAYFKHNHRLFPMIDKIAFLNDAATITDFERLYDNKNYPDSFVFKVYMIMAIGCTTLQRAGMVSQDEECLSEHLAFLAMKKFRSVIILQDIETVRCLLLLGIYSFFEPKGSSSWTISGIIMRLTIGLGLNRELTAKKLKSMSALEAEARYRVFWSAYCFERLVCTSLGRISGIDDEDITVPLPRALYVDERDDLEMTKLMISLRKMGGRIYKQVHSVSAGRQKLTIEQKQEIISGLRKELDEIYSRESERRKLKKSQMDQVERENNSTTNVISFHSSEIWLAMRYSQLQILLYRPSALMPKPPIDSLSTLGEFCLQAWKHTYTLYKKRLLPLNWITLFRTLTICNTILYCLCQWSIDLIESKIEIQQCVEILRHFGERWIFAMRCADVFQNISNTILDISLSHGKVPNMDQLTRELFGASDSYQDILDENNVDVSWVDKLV
Assay: PBM E-score (8-mer binding enrichment) (E-score (-0.5 to 0.5)); higher = stronger / more preferred TF binding
Settings: protein concentration: 200 nM; construct: GST-full length
In all, about 33,000 sequences were measured (“E-score (-0.5 to 0.5)”: median about -0.054, highest 2% from about 0.35 on). This excerpt belongs to a sample that is enriched for the highest values.
recorded.endpoint: PBM E-score

Could you tell me which PBM E-score is on file for AACCACCA ?
-0.124

Could you tell me which PBM E-score is on file for CTGGACTC ?
-0.169

Could you tell me which PBM E-score is on file for ACTATCCA ?
0.0766

Could you tell me which PBM E-score is on file for AGTCAAGC ?
-0.3

Could you tell me which PBM E-score is on file for CAGCTCCG ?
0.136

Could you tell me which PBM E-score is on file for AATCTCCC ?
-0.0498

Could you tell me which PBM E-score is on file for GCCTAGGC ?
-0.0482

Could you tell me which PBM E-score is on file for ATACTCCG ?
0.371

Could you tell me which PBM E-score is on file for CCAAGTAG ?
-0.293

Could you tell me which PBM E-score is on file for AAGCTCCT ?
-0.165

Could you tell me which PBM E-score is on file for AAACTCCG ?
0.463

Could you tell me which PBM E-score is on file for CGGTACTA ?
0.474

Could you tell me which PBM E-score is on file for CACCACCG ?
0.21

Could you tell me which PBM E-score is on file for AATCACCG ?
0.441

Could you tell me which PBM E-score is on file for CAGCACCG ?
0.313

###

Molecular target: Stb5 (UniProt P38699)
Sequence: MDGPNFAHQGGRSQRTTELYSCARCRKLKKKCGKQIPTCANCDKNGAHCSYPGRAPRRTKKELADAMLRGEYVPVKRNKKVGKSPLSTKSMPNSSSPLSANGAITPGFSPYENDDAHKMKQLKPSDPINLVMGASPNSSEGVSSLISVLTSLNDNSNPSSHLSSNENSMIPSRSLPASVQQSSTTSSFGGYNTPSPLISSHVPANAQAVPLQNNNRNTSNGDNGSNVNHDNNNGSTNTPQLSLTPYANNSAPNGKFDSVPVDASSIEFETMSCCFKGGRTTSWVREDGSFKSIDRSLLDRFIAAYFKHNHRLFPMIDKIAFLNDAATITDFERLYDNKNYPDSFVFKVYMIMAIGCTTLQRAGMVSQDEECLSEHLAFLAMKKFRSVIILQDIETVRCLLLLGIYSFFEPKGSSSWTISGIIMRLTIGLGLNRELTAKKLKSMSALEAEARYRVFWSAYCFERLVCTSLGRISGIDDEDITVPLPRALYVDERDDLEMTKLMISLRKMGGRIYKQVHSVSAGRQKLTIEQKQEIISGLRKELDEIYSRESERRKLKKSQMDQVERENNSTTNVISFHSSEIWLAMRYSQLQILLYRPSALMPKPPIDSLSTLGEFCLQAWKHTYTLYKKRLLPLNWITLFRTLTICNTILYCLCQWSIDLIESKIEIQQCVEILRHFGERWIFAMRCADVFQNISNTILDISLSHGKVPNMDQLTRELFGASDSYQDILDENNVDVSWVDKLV
Test: PBM E-score (8-mer binding enrichment) (E-score (-0.5 to 0.5)); higher = stronger / more preferred TF binding
Details: protein concentration: 200 nM; construct: GST-full length
Over roughly 33,000 sequences, “E-score (-0.5 to 0.5)” has its median near -0.054; the highest 2% begin near 0.35. This excerpt belongs to a sample that is enriched for the highest values.
recorded.endpoint: PBM E-score

Could you tell me which PBM E-score is on file for ACTGCGAC ?
0.202

Could you tell me which PBM E-score is on file for ATGTCGGA ?
0.303

Could you tell me which PBM E-score is on file for CGGTCGTA ?
0.381

Could you tell me which PBM E-score is on file for ATCGGCGC ?
0.291

Could you tell me which PBM E-score is on file for TGCCAGAA ?
-0.307

Could you tell me which PBM E-score is on file for TAAATCGA ?
-0.267

Could you tell me which PBM E-score is on file for CCAAGCAG ?
-0.122

Could you tell me which PBM E-score is on file for ATGAAAGC ?
-0.0893

Could you tell me which PBM E-score is on file for CTGGACTA ?
-0.143

Could you tell me which PBM E-score is on file for CACTCCGA ?
0.242

Could you tell me which PBM E-score is on file for GACTCCGC ?
0.333

Could you tell me which PBM E-score is on file for ATAACACA ?
-0.107

Could you tell me which PBM E-score is on file for GCTGGAAA ?
-0.0514

Could you tell me which PBM E-score is on file for TAGTCGGA ?
0.355

Could you tell me which PBM E-score is on file for AGACTTGG ?
-0.17

Could you tell me which PBM E-score is on file for AGCAGTTA ?
-0.194

Could you tell me which PBM E-score is on file for ACAGCACC ?
0.202

Could you tell me which PBM E-score is on file for CCTGATAA ?
-0.0146

Could you tell me which PBM E-score is on file for CAGTCGGA ?
0.292

Could you tell me which PBM E-score is on file for TCGGCCCA ?
0.105

Could you tell me which PBM E-score is on file for CCATACCG ?
0.202

Could you tell me which PBM E-score is on file for GGGTCATA ?
-0.00196

Could you tell me which PBM E-score is on file for CGTAGTAC ?
0.0304

Could you tell me which PBM E-score is on file for AACTCCGA ?
0.463

Could you tell me which PBM E-score is on file for CTAACACC ?
0.401

Could you tell me which PBM E-score is on file for AAAAAGTC ?
0.175

Could you tell me which PBM E-score is on file for AACTCCGC ?
0.438

Could you tell me which PBM E-score is on file for AACAGCGG ?
0.366

Could you tell me which PBM E-score is on file for AACTCCCG ?
0.248
